Tested on: pRII (PKA-II signaling activity) in rat sensory neurons
Format: cell-based
Details: read-out: IC50 on pRII signals induced by 5-HT
Experimental Readout: pIC50
Keep in mind that pIC50 stands for -log10 of concentration in molar terms.

Sample `Cn1cc(C(=O)OCC2CCN(CCNS(C)(=O)=O)CC2)c2ccccc21` — what was its pIC50?
8.07
